# PROTOCOL TEXT: Human HepG2 cell viability assay in 384 well format
# Assay type: toxicity, cell-based
# Design: dose 125 nL, time 70.5 hour; concentration not given beside the values
# CONDITION INFO: HepG2 cells, read-out: Inhibition
METRIC NAME: cytotoxicity at 70.5 h (%)
Record the value in %, omitting the unit from your answer.

Consider the compound shown here: `CCSc1cccc(NCc2cccnc2)c1` What is its recorded cytotoxicity at 70.5 h?
-16.6

Another compound: `O=C(NCCN1CCOCC1)Nc1cc(F)ccc1-n1cccn1`
-0.85

Another compound: `COCc1ncc(CN2CCC(Oc3ccccc3OC)CC2)cn1`
-10.9

Another compound: `CCCC(=O)N1CCC(Nc2nc(O)cc(-c3ccsc3)n2)CC1`
-3.98

Another compound: `CCc1nccn1CCCn1ccnc1-c1[nH]cnc1C`
5.17

Another compound: `CCn1ccnc1CN1CCN(CC(=O)NC(=O)NC2CC2)CC1`
-8.53

Another compound: `Cc1ccc(CN(CCCn2ccnc2)Cc2c[nH]cn2)s1`
-0.992

Another compound: COC(=O)c1ccc2ccn(CC3CCCN(C)C3)c(=O)c2c1 (stereo unspecified)
25.4

Another compound: `NC(=O)N1C[C@H](NC(=O)c2cscn2)[C@@H]2OCCC[C@@H]21`
-6.33

Another compound: `Cc1cccc(COC[C@@H]2CC[C@H]3[C@H](CCN3C(=O)CC3CC3)O2)n1`
-6.33

Another compound: `Cc1ccc(C)c(SCC(=O)Nc2cccc(C(=O)N(C)C)n2)c1`
11.9
